src = the supplement of paper PMC6555819

# Tested on: LXRa:RXRa (NR concentration 270 nM, RXRa partner concentration 90 nM)
# protocol.notes: PBM binding z-score (relative to random genomic background probes); higher = stronger binding; sequences stand for … in GC…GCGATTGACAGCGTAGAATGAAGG
Cut-off 0.6 on PBM binding z-score, inclusive. At or above means t; below means f.

{"item.sequence": "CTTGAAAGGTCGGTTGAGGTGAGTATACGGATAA", "class.name": "t"}
{"item.sequence": "CAAACTAGGTCGAGAGGTCAAAGTCCGCTTCCCG", "class.name": "t"}
{"item.sequence": "CCTAGCAGGCCAATCTGGCTCACTCAAGGCTTGA", "class.name": "f"}
{"item.sequence": "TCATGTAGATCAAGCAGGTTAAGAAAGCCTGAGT", "class.name": "t"}
{"item.sequence": "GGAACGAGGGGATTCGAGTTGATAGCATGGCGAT", "class.name": "f"}
{"item.sequence": "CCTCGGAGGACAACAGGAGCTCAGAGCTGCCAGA", "class.name": "f"}
{"item.sequence": "TCTTGTAGATCAACAGGAGGTTACGAAAGATCGA", "class.name": "t"}
{"item.sequence": "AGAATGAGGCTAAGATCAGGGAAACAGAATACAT", "class.name": "f"}
{"item.sequence": "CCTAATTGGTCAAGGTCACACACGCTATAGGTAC", "class.name": "t"}
{"item.sequence": "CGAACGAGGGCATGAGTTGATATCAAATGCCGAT", "class.name": "f"}
{"item.sequence": "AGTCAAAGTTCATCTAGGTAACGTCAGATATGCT", "class.name": "t"}
{"item.sequence": "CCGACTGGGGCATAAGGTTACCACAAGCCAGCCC", "class.name": "t"}
{"item.sequence": "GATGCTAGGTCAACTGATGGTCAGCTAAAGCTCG", "class.name": "t"}
{"item.sequence": "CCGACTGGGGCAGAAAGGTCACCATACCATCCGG", "class.name": "t"}
{"item.sequence": "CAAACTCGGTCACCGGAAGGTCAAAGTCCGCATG", "class.name": "t"}
{"item.sequence": "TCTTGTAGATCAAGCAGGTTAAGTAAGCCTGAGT", "class.name": "f"}
